Give measured kinase still bound, per cent of control for each item. Keep answers brief.
Test system: FLT3 (human), P36888 [K663Q]
TEST: KINOMEscan competition binding
EXPERIMENTAL CONTEXT: compound 10.0 µM
Give just the numeric value; % need not be written.

# query: kinase still bound, per cent of control of entry C=CC(=O)Nc1cc(-n2c(=O)ccc3cnc4ccc(-c5cn[nH]c5)cc4c32)ccc1C
18

Also, COc1cc(C(=O)NC2CCN(C)CC2)ccc1Nc1ncc2c(n1)N(C1CCCC1)CCC(=O)N2C(C)C please.
100

Also, COc1cc(N2CCN(C)CC2)ccc1Nc1nc(N)c(C(=O)c2c(Cl)cccc2Cl)s1 please.
100

Also, CCCS(=O)(=O)Nc1ccc(F)c(C(=O)c2c[nH]c3ncc(Cl)cc23)c1F please.
17

Also, CN(C)C/C=C/C(=O)Nc1ccc(C(=O)Nc2cccc(Nc3nccc(-c4cccnc4)n3)c2)cc1 please.
34

Also, N#Cc1c(NC(=O)c2cccc3ccccc23)sc2c1CCCC2 please.
93

Also, O=C1NC(=O)/C(=C/c2ccc3nccc(-c4ccncc4)c3c2)S1 please.
37

Also, O=C(Nc1cccc(Nc2ncc(Br)c(NCCc3cnc[nH]3)n2)c1)N1CCCC1 please.
0.1

Also, COc1cc(C(=O)NC2CCN(C)CC2)ccc1Nc1ncc2c(n1)N(C1CCCC1)C(C)CC(=O)N2C (configuration not stated) please.
100

Also, Cc1cn(-c2cc(C(=O)Nc3ccc(C)c(NC(=O)c4ccno4)c3)cc(C(F)(F)F)c2)cn1 please.
100

Also, Nc1ccc(-c2ccc3ncc4ccc(=O)n(-c5cccc(C(F)(F)F)c5)c4c3c2)cn1 please.
18

Also, N#Cc1cc(-c2ccnc(Nc3ccc(-n4cnc(-c5cccnc5)n4)cc3)n2)cc(N2CCOCC2)c1 please.
17

Also, O=c1[nH]c2ccccc2n1C1CCN(Cc2ccc(-c3nc4cc5[nH]cnc5cc4nc3-c3ccccc3)cc2)CC1 please.
56

Also, CCN1CCN(Cc2ccc(NC(=O)c3ccc(C)c(/C=C/c4cnc5[nH]ccc5c4OC)c3)cc2C(F)(F)F)CC1 please.
0.05

Also, C[C@@H](Oc1cc(-c2cnn(C3CCNCC3)c2)cnc1N)c1c(Cl)ccc(F)c1Cl please.
5.6

Also, C[C@@H](Oc1cc(-n2cnc3ccc(CN4CCN(C)CC4)cc32)sc1C(N)=O)c1ccccc1C(F)(F)F please.
14

Also, COCC(=O)NC/C=C/c1ccc2ncnc(Nc3ccc(Oc4ccc(C)nc4)c(C)c3)c2c1 please.
79

Also, COc1cc2ncnc(-n3nc(-c4ccccn4)nc3N)c2cc1OC please.
21

Also, NC(=O)Nc1cc(-c2cccc(F)c2)sc1C(=O)N[C@@H]1CCCNC1 please.
0.1

Also, CCN(CC)CCCCNc1ncc2c(n1)N(C)C(=O)N(c1c(Cl)c(OC)cc(OC)c1Cl)C2 please.
100

Also, COc1cc(C(=O)N2CCC(N3CCN(C)CC3)CC2)ccc1Nc1ncc2c(n1)N(C)c1ccccc1C(=O)N2C please.
97

Also, CS(=O)(=O)N1CCN(Cc2cc3nc(-c4cccc5[nH]ncc45)nc(N4CCOCC4)c3s2)CC1 please.
100

Also, C=CC(=O)Nc1ccc(CN(C(=O)Nc2c(Cl)c(OC)cc(OC)c2Cl)c2cc(Nc3ccc(N4CCN(C)CC4)cc3)ncn2)cc1 please.
21

Also, COc1cc2ncnc(Nc3cccc(Cl)c3)c2cc1OC please.
35

Also, N#C/C(=C1/Nc2ccccc2S1)c1ccnc(NCCc2cccnc2)n1 please.
95

Also, CC1=C(C(=O)Nc2cc3cn[nH]c3cc2F)C(c2ccc(C(F)(F)F)cc2)CC(=O)N1 (configuration not stated) please.
78

Also, Cc1ccc(C(=O)Nc2cccc(C(F)(F)F)c2)cc1Nc1cncc(C(N)=O)c1 please.
100

Also, O=C(O)c1ccc(Nc2ncc3c(n2)-c2ccc(Cl)cc2C(c2c(F)cccc2F)=NC3)cc1 please.
68

Also, CNC(=O)c1ccc(Nc2cc(Nc3ccccc3S(=O)(=O)C(C)C)c3cc[nH]c3n2)nc1 please.
2.6

Also, COc1ccc(N(C(=O)Oc2c(C)cccc2C)c2ccnc(Nc3ccc(N4CCN(C)CC4)cc3)n2)c(OC)c1 please.
3.4

Also, CNC(=O)Nc1ccc(-c2nc(N3CC4CCC(C3)O4)c3cnn(C4CCC5(CC4)OCCO5)c3n2)cc1 please.
69

Also, Cc1ccc2nc(NCCN)c3ncc(C)n3c2c1 please.
92

Also, OCCCNc1cc(-c2ccnc(Nc3cccc(Cl)c3)n2)ccn1 please.
100

Also, COc1cc2c(Nc3ccc(NC(=O)c4ccccc4)cc3)ncnc2cc1OCCCN1CCOCC1 please.
4

Also, CC[C@@H]1C(=O)N(C)c2cnc(Nc3ccc(C(=O)NC4CCN(C)CC4)cc3OC)nc2N1C1CCCC1 please.
100

Also, CC(=O)c1c(C)c2cnc(Nc3ccc(N4CCNCC4)cn3)nc2n(C2CCCC2)c1=O please.
30

Also, Cc1n[nH]c2ccc(-c3cncc(OC[C@@H](N)Cc4c[nH]c5ccccc45)c3)cc12 please.
3.8

Data provenance: the kinase profiling compilation of Christmann-Franck et al. (2016)
